- target.system: KRas G12A (Homo sapiens, UniProt P01116, G12A)
- Sequence (P01116 1-169 isoform P01116-2 G12A): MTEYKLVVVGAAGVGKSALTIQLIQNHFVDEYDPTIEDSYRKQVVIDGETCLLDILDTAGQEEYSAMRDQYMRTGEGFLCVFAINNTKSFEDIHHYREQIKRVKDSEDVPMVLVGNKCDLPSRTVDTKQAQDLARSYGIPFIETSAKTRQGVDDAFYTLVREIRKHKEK
- Format: binding
- setup.conditions: TR-FRET displacement, read-out: Binding to KRas (IC50 nM) G12A
Output True for records whose IC50 is lower than 2000 nM, False for records at or above 2000 nM.

Reference set (6 entries):
>>> df
                                   compound  class_label
0  CCc1cccc2cccc(N3CCc4c(nc(OCC5(CN(C)C)CC5)nc4N(C)Cc4nnnn4C)C3)c12        False
1  CCc1cccc2cccc(N3CCc4c(nc(OCC5(CN(C)C)CC5)nc4NCCc4sc(N)nc4C)C3)c12         True
2  CCc1c(F)ccc2cccc(N3CCc4c(nc(OC[C@@]56CCCN5C[C@H](F)C6)nc4N4CCCn5nc(C(=O)N(C)C)cc5C4)C3)c12         True
3  CCc1cccc2cccc(N3CCc4c(nc(OCC5(CN(C)C)CC5)nc4N4Cc5nncn5C(C)C4)C3)c12 (stereo not shown)        False
4  CCc1cccc2cccc(N3CCc4c(nc(OCC5(CN(C)C)CC5)nc4N4CCC(n5cn[nH]c5=O)CC4)C3)c12        False
5  CCc1cccc2cccc(N3CCc4c(nc(OCC5(CN(C)C)CC5)nc4N(C)Cc4nnc5c(=O)n(C)ccn45)C3)c12         True

Now for another entry.
INPUT: Threshold test, IC50 < 2000 nM: CCc1cccc2cccc(N3CCc4c(nc(OCC5(CN(C)C)CC5)nc4N(C)Cc4nnc5n4CCOC5)C3)c12
OUTPUT: False
